Exercise: for every item that follows, state its recorded IC50.
measurement-target: Human immunodeficiency virus type 1 reverse transcriptase (Human immunodeficiency virus 1, UniProt Q72547)
One number for each entry, in nM.

Sample records with IC50:
CC(C)=CCN1Cc2c(C#N)ccc3[nH]c(=S)n(c23)C[C@@H]1C: 56.3
CC(C)=CCN1Cc2c(Cl)ccc3[nH]c(=S)n(c23)C[C@@H]1C: 4.3
CC(C)=CCN1Cc2cc(Cl)cc3[nH]c(=S)n(c23)C[C@@H]1C: 34
CC(C)=CCN1Cc2cccc3nc(O)n(c23)C[C@@H]1C: 3160

Please look up its IC50: CC(C)=CCN1Cc2c(C#N)ccc3[nH]c(=O)n(c23)C[C@@H]1C
1140
